- Tested on: OVCAR-3 ovarian
- procedure-details: NCI tumour cell line growth inhibition, 48 h
measured-property: TGI (µM)
The figure you give is taken to be in µM; do not add the unit.

substance-smiles | TGI, µM
O=C(/C=C/c1cccc(OCc2ccc(F)cc2)c1)c1nc2ccccc2[nH]1 | 37.6

Exam item: // Input: O=C(CNc1nc(-c2ccccc2)cs1)Nc1ccc([N+](=O)[O-])cc1Cl . Output its TGI only.
Marked response: 14.1

Exam item: // Input: COc1cccc(-c2ccc(/C=N/NC(=O)c3[nH]c4ccc(Br)cc4c3-c3ccccc3)o2)c1 . Output its TGI only.
Marked response: 8.6

Exam item: // Input: CN1CCc2c(sc3ncnc(N/N=C/c4ccc(Cl)cc4Cl)c23)C1 . Output its TGI only.
Marked response: 2.88

Attribution: PubChem BioAssay (NCI)
